Voltage-gated inwardly rectifying potassium channel KCNH2 (Homo sapiens) data, read-out IC50
Sequence (Q12809 whole entry): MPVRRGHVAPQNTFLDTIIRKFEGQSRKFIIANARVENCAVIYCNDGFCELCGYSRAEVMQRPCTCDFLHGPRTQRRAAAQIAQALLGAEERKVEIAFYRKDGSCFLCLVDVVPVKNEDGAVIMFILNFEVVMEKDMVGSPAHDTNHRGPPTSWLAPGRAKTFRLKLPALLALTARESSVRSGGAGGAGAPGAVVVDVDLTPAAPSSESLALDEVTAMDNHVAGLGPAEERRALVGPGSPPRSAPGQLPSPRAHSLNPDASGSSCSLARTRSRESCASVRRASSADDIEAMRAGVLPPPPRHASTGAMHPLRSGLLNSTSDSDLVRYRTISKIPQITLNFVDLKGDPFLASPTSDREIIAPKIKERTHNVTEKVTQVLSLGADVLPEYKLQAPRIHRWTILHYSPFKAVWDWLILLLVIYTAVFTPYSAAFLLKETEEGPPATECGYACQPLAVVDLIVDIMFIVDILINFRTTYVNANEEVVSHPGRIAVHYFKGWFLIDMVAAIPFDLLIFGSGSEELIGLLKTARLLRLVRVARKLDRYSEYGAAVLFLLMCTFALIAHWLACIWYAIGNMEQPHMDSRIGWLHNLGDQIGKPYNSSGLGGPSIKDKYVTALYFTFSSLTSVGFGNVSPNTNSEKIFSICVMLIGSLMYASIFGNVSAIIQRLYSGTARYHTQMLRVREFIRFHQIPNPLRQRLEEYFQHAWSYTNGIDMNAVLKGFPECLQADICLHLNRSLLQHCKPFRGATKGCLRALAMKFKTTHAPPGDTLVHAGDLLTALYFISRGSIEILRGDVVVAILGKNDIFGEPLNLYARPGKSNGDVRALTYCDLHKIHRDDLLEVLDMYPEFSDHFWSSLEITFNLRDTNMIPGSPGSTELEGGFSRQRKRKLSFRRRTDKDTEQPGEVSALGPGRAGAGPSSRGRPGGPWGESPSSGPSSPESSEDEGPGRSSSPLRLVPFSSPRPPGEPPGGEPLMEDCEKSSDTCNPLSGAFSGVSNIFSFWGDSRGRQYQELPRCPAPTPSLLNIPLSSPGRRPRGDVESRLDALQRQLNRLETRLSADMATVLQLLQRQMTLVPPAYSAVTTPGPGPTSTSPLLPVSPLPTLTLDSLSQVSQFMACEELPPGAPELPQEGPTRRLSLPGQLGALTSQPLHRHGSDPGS

[[record]]
compound_string = "Nc1cc(F)c(S(=O)(=O)N[C@H]2CNC2=O)cc1C(=O)Nc1ccc(F)c(C(F)F)c1"
system_name = "Voltage-gated inwardly rectifying potassium channel KCNH2 (Homo sapiens)"
result = "> 10 µM"


Query string: Reported IC50, compound Nc1cc(F)c(S(=O)(=O)NC2COC2)cc1C(=O)Nc1ccc(F)c(C(F)F)c1 : ____
Result string: > 10 µM

* * *

Catalogue of Tmax values
# Assay Summary: Tmax in male mouse at 5 mg/kg, po
# Format: ADME, organism-based
# Condition Label: in vivo
Numeric answer only, unit min assumed.

Query string: Reported Tmax, compound Nc1cc(F)c(S(=O)(=O)N[C@H]2CNC2=O)cc1C(=O)Nc1ccc(F)c(C(F)F)c1 : ____
Result string: 30

Query string: Reported Tmax, compound Nc1cc(F)c(S(=O)(=O)NC2COC2)cc1C(=O)Nc1ccc(F)c(C(F)F)c1 : ____
Result string: 15

* * *

# Assay Summary: Stability in human plasma assessed as compound remaining incubated for 4 hrs
# Assay type: ADME, cell-free
# Condition Label: read-out: Stability
Reported Metric: remaining at 4 h (%)
Numeric answer only, unit % assumed.

Query string: Reported remaining at 4 h, compound Nc1cc(F)c(S(=O)(=O)N[C@H]2CNC2=O)cc1C(=O)Nc1ccc(F)c(C(F)F)c1 : ____
Result string: 85.4

Query string: Reported remaining at 4 h, compound Nc1cc(F)c(S(=O)(=O)NC2COC2)cc1C(=O)Nc1ccc(F)c(C(F)F)c1 : ____
Result string: 94

* * *

# Assay Summary: Stability in mouse plasma assessed as compound remaining incubated for 4 hrs
# Type: ADME, cell-free
# Condition Label: read-out: Stability
Catalogue of remaining at 4 h values
Numeric answer only, unit % assumed.

Query string: Reported remaining at 4 h, compound Nc1cc(F)c(S(=O)(=O)N[C@H]2CNC2=O)cc1C(=O)Nc1ccc(F)c(C(F)F)c1 : ____
Result string: 43.2

Query string: Reported remaining at 4 h, compound Nc1cc(F)c(S(=O)(=O)NC2COC2)cc1C(=O)Nc1ccc(F)c(C(F)F)c1 : ____
Result string: 94.5

* * *

Catalogue of selectivity ratio values
# Assay Summary: Selectivity index, ratio of CC50 for cytotoxicity in human HepG2.2.15 cells assessed as reduction in cell viability to EC50 for antiviral activity against HBV in human HepG2.2.15 cells assessed as reduction in viral replication
# Type: toxicity, cell-based
# Condition Label: read-out: Ratio CC50/EC50
API note: the answer field is a bare number with no unit suffix.

Below are worked cases with known answers.
[[record]]
compound_string = "Nc1cc(F)c(S(=O)(=O)N[C@H]2CNC2=O)cc1C(=O)Nc1ccc(F)c(C(F)F)c1"
reported_metric = "selectivity ratio"
numeric_result = 1420

[[record]]
compound_string = "Nc1cc(F)c(S(=O)(=O)NCC2COC2)cc1C(=O)Nc1ccc(F)c(C(F)F)c1"
reported_metric = "selectivity ratio"
numeric_result = 1160

[[record]]
compound_string = "Cc1cc(NC(=O)c2cc(S(=O)(=O)N3CCOCC3)c(F)cc2N)ccc1F"
reported_metric = "selectivity ratio"
numeric_result = 94.7

[[record]]
compound_string = "Nc1cc(F)c(S(=O)(=O)N2CCOCC2)cc1C(=O)Nc1ccc(F)c(F)c1"
reported_metric = "selectivity ratio"
numeric_result = 610

[[record]]
compound_string = "Nc1cc(F)c(S(=O)(=O)N2CCCOCC2)cc1C(=O)Nc1ccc(F)c(F)c1"
reported_metric = "selectivity ratio"
numeric_result = 48.6


Query string: Reported selectivity ratio, molecule Nc1cc(F)c(S(=O)(=O)N2CCCOCC2)cc1C(=O)Nc1ccc(F)c(C(F)F)c1 : ____
Result string: 96.2

Query string: Reported selectivity ratio, molecule C[C@@H](NS(=O)(=O)c1cc(C(=O)Nc2ccc(F)c(C(F)F)c2)c(N)cc1F)C1COC1 : ____
Result string: 399

Query string: Reported selectivity ratio, molecule Nc1cc(F)c(S(=O)(=O)N2CCS(=O)(=O)CC2)cc1C(=O)Nc1ccc(F)c(C(F)F)c1 : ____
Result string: 1740
